Target: human GluN1/GluN2B NMDA receptors (Homo sapiens, UniProt Q13224)
Construct: expressed in transfected cells
Sequence (Q13224 27-1484, other chains not shown): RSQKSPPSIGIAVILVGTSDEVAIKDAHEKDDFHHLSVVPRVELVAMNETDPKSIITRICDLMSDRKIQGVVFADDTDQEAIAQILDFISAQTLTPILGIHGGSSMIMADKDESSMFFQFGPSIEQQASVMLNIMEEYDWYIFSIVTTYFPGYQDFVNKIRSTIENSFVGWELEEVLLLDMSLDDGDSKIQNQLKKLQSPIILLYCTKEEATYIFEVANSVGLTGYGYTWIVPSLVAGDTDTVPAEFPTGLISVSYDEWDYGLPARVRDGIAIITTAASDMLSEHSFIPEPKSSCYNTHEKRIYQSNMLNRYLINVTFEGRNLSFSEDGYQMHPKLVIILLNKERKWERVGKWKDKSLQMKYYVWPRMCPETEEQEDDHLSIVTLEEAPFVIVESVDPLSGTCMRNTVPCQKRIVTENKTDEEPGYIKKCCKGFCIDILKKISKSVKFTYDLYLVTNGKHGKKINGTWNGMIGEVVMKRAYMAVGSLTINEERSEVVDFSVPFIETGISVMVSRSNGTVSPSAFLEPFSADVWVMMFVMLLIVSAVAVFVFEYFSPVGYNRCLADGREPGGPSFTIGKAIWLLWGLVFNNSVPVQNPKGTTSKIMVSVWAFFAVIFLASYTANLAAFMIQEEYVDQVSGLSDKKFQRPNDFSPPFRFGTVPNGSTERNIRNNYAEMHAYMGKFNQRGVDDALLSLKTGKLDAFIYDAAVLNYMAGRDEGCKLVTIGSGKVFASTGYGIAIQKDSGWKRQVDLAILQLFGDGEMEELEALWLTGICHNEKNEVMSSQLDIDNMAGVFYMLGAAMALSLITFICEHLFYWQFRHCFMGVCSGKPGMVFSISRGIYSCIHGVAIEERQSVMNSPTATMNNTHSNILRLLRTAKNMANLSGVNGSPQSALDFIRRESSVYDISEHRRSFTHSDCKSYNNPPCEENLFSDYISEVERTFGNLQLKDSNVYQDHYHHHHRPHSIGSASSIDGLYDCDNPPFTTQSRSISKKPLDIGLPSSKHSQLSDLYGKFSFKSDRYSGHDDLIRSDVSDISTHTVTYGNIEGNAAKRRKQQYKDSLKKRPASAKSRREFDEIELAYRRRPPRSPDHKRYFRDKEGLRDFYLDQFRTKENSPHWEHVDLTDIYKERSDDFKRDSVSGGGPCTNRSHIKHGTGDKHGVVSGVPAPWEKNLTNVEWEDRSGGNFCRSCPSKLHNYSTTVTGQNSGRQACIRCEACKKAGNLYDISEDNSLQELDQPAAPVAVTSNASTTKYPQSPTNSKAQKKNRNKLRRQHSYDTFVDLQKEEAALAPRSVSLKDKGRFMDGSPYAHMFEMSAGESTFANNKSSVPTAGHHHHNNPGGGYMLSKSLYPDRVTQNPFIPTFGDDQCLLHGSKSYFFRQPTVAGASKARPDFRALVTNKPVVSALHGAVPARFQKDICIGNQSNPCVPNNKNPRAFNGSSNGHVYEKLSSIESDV
Test: Cell-based calcium flux (FLIPR) assay on cloned human NR1/NR2B ion channels expressed in mammalian cells (standard and HTS buffer variants)
Conditions: HTS assay buffer (1.5 mM MgCl2 in dye loading buffer; 150 mM NaCl, 3 mM KCl in assay buffer), human GluN1/GluN2B, read-out: NR2B IC50 (μM) HTS assay
property: IC50 (µM)

I = COc1ccc(-c2cnc3[nH]c(=O)n(CC(=O)NC4CC4)c3c2)c(OC)c1
II = COc1ccc(Cn2c(=O)[nH]c3ncc(-c4cc(F)cc(F)c4)cc32)cc1
III = COCCNC(=O)Cn1c(=O)[nH]c2ncc(-c3ccc(OC)cc3)cc21
IV = CN(C)c1cccc(-c2cnc3[nH]c(=O)n(CC4CC4)c3c2)c1
Rank descending by IC50: all 4 compounds from above. # answer = labels listed in requested order
IV, I, III, II

###

Target: human GluN1/GluN2B NMDA receptors (Homo sapiens)
Construct: expressed in transfected cells
Assay: Cell-based calcium flux (FLIPR) assay on cloned human NR1/NR2B ion channels expressed in mammalian cells (standard and HTS buffer variants)
Conditions: standard assay buffer (0.5 mM MgCl2 dye loading; 137 mM NaCl, 4 mM KCl assay buffer), human GluN1/GluN2B cells, read-out: NR2B IC50 (μM) standard assay
property: IC50 (µM)

Recorded IC50, per entry:
Cc1cncc(Cn2c(=O)[nH]c3ncc(-c4cc(F)c(F)c(F)c4)cc32)c1 [Example 308]    0.03
O=C(O)Cn1c(=O)[nH]c2ncc(-c3cccc(C(F)(F)F)c3)cc21 [Example 135]    6
O=c1[nH]c2ncc(-c3cccc(C(F)(F)F)c3)cc2n1CCN1CCCCC1 [Example 161]    1.43

1 = O=c1[nH]c2ncc(-c3cccc(C(F)(F)F)c3)cc2n1Cc1cnccn1 [Example 253]
2 = O=c1[nH]c2ncc(-c3cccc(F)c3)cc2n1Cc1ccccn1 [Example 281]
3 = O=c1[nH]c2ncc(-c3cccc(C(F)(F)F)c3)cc2n1Cc1ccncc1 [Example 229]
Hey, can you sort those compounds up there by IC50, smallest first? Your task in answering is to list the labels in the requested order.
1, 3, 2

a = O=C(Cn1c(=O)[nH]c2ncc(-c3cccc(C(F)(F)F)c3)cc21)NC1COC1 [Example 192]
b = O=c1[nH]c2ncc(-c3cccc(C(F)(F)F)c3)cc2n1CCN1CCCC1 [Example 146]
c = Cc1csc(-c2cnc3[nH]c(=O)n(Cc4cc(C)on4)c3c2)c1 [Example 125]
Highest IC50 first, then in falling order down to the smallest. Answer by naming the labels in the order asked.
b, c, a

###

Biological target: human GluN1/GluN2B NMDA receptors (Homo sapiens)
Construct: expressed in transfected cells
Experiment: Cell-based calcium flux (FLIPR) assay on cloned human NR1/NR2B ion channels expressed in mammalian cells (standard and HTS buffer variants)
Conditions: standard assay buffer (0.5 mM MgCl2 in dye loading buffer; 137 mM NaCl, 4 mM KCl in assay buffer), human GluN1/GluN2B, read-out: NR2B IC50 (μM) standard assay
property: IC50 (µM)

Cn1c(=O)n(CC(=O)N2CC(F)C2)c2cc(-c3ccc(C(F)(F)F)s3)cnc21 [Example 327]    0.071

a = Cn1c(=O)n(CC(=O)N2CC(F)C2)c2cc(-c3ccc(F)c(OC(F)F)c3)cnc21 [Example 589]
b = Cc1cccc(-c2cnc3c(c2)n(Cc2cncc(F)c2)c(=O)n3C)c1F [Example 352]
Which of the two gives a bigger number for IC50: a or b ? Respond with the label that goes with your answer.
b

###

Target: human GluN1/GluN2B NMDA receptors (Homo sapiens, UniProt Q13224)
Construct: expressed in transfected cells
Test: Cell-based calcium flux (FLIPR) assay on cloned human NR1/NR2B ion channels expressed in mammalian cells (standard and HTS buffer variants)
Conditions: standard assay buffer (0.5 mM MgCl2 in dye loading buffer; 137 mM NaCl, 4 mM KCl in assay buffer), human GluN1/GluN2B, read-out: NR2B IC50 (μM) standard assay
property: IC50 (µM)

I = Cc1cc(-c2cnc3c(c2)n(Cc2cncc(F)c2)c(=O)n3C)ccc1F
II = Cn1c(=O)n(CC(=O)N2CC(F)(F)C2)c2cc(-c3ccc(C(F)(F)F)s3)cnc21
III = O=C(Cn1c(=O)[nH]c2ncc(-c3ccc(F)c(Cl)c3)cc21)NC1CC1
IV = Cc1cccc(-c2cnc3c(c2)n(Cc2cccnc2)c(=O)n3C)c1F
Put the items in sequence by IC50, from largest down. Your reply should list the labels following the order given in the request.
IV, I, II, III

###

Target: human GluN1/GluN2B NMDA receptors (Homo sapiens, UniProt Q05586+Q13224)
Construct: expressed in transfected cells
Test: Cell-based calcium flux (FLIPR) assay on cloned human NR1/NR2B ion channels expressed in mammalian cells (standard and HTS buffer variants)
Details: standard assay buffer (0.5 mM MgCl2 dye loading; 137 mM NaCl, 4 mM KCl assay buffer), human GluN1/GluN2B cells, read-out: NR2B IC50 (μM) standard assay
property: IC50 (µM)

O=c1[nH]c2ncc(-c3ccc(F)cc3)cc2n1CC1CCN1 (racemic)    0.173

1 = [2H]C([2H])([2H])OCc1ccc(-c2cnc3c(c2)n(CC(=O)N2CC(F)C2)c(=O)n3C)s1
2 = Cn1c(=O)n(CC2CCN2)c2cc(-c3cccc(C(F)(F)F)c3)cnc21 (racemic)
Pick the one with the larger IC50: 1 vs 2 // return label of chosen record
1
(1: 1.82 µM, 2: 0.409 µM)

I = O=c1[nH]c2ncc(-c3cccc(C(F)(F)F)c3)cc2n1CC1CCO1 (single isomer, unassigned) [Example 224]
II = CCC(O)Cn1c(=O)[nH]c2ncc(-c3ccc(OC)cc3)cc21 (single isomer, unassigned)
III = O=c1[nH]c2ncc(-c3cccc(C(F)(F)F)c3)cc2n1CC1CCCCO1 (racemic)
IV = O=c1[nH]c2ncc(-c3cccc(C(F)(F)F)c3)cc2n1CC1CCO1 (racemic) [Example 216]
Could you please order the items by IC50, going from the lowest number to the highest? Labels, ranked as asked.
IV, I, II, III

###

Biological target: human GluN1/GluN2B NMDA receptors (Homo sapiens)
Construct: expressed in transfected cells
Assay: Cell-based calcium flux (FLIPR) assay on cloned human NR1/NR2B ion channels expressed in mammalian cells (standard and HTS buffer variants)
Conditions: standard assay buffer (0.5 mM MgCl2 dye loading; 137 mM NaCl, 4 mM KCl assay buffer), human GluN1/GluN2B cells, read-out: NR2B IC50 (μM) standard assay
property: IC50 (µM)

In the examples that follow, each entry is paired with its recorded IC50.
Cc1ccncc1Cn1c(=O)[nH]c2ncc(-c3cccc(F)c3)cc21    0.034
O=c1[nH]c2ncc(-c3cccc(C(F)(F)F)c3)cc2n1CCNC1CCC1    0.277

A = Cc1ccc(C(F)(F)F)cc1-c1cnc2[nH]c(=O)n(CC(=O)N3CCC3)c2c1
B = O=c1[nH]c2ncc(-c3cc(F)cc(F)c3)cc2n1CCN1CCC1
Could you please tell me which of these two has the higher IC50: A or B ? // output: label of the selected item
A

I = Cc1cc(-c2cnc3[nH]c(=O)n(Cc4cncc(F)c4)c3c2)ccc1Cl
II = Cc1cc(F)ccc1-c1cnc2[nH]c(=O)n(CCN3CC(F)C3)c2c1
III = CCc1ccc(-c2cnc3c(c2)n(CC(=O)N2CCC2)c(=O)n3C)s1
// ascending sort on recorded IC50 List each label, following the requested order.
III, I, II

a = Cc1cc(-c2cnc3c(c2)n(Cc2cnccn2)c(=O)n3C)ccc1F
b = Cn1c(=O)n(Cc2ccncc2)c2cc(-c3ccc(F)c(F)c3)cnc21
Which is greater in IC50, the first item a or the second item b ? Pick one and reply with its label.
b
(b: 1.9 µM, a: 0.113 µM)

A = Cc1cccc(C)c1-c1cnc2[nH]c(=O)n(CCN3CCC3)c2c1
B = O=c1[nH]c2ncc(-c3cccc(C(F)(F)F)c3)cc2n1Cc1cccnc1
Please choose the item with the lower IC50 value from this pair: A and B Answer format: the label of the selected item.
B
(B: 0.017 µM, A: 1.97 µM)

###

Target: human GluN1/GluN2B NMDA receptors (Homo sapiens, UniProt Q13224)
Construct: expressed in transfected cells
Assay: Cell-based calcium flux (FLIPR) assay on cloned human NR1/NR2B ion channels expressed in mammalian cells (standard and HTS buffer variants);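 also: stable Tet-On inducible cell line, Ca2+ influx triggered by glutamate at about EC40 plus 10 µM glycine, fluorescent dye read-out over 5 min, normalized to control wells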
Settings: standard assay buffer (0.5 mM MgCl2 dye loading; 137 mM NaCl, 4 mM KCl assay buffer), human GluN1/GluN2B cells, read-out: NR2B IC50 (μM) standard assay
property: IC50 (µM)

Example entries begin here.
Cn1c(=O)n(Cc2ncccn2)c2cc(-c3ccc(F)c(F)c3)cnc21    3.59
Cc1cccc(-c2cnc3[nH]c(=O)n(CCN4CCC4)c3c2)c1    0.077
Cc1ccncc1Cn1c(=O)[nH]c2ncc(-c3ccc(F)c(C)c3F)cc21    0.111
Cn1c(=O)n(Cc2ccccn2)c2cc(-c3ccc(F)c(F)c3)cnc21    2
O=c1[nH]c2ncc(-c3cccc(C(F)(F)F)c3)cc2n1Cc1cccc(Cl)c1    1.34

1 = N#Cc1ccccc1Cn1c(=O)[nH]c2ncc(-c3cccc(C(F)(F)F)c3)cc21
2 = Cc1cncc(Cn2c(=O)[nH]c3ncc(-c4cccc(C(F)(F)F)c4)cc32)c1
Sorting by IC50 in descending order, would 1 or 2 appear first? Bench note: the answer is the label of the chosen record.
1
(1: 0.375 µM, 2: 0.15 µM)

1 = Cn1c(=O)n(Cc2ccncn2)c2cc(-c3cccc(F)c3)cnc21
2 = CC1(NC(=O)Cn2c(=O)[nH]c3ncc(-c4cccc(C(F)(F)F)c4)cc32)CC(F)(F)C1
3 = Cn1c(=O)n(CC(=O)N2CCC2)c2cc(-c3ccc(C(F)(F)C(F)(F)F)s3)cnc21
4 = Cc1noc(Cn2c(=O)n(C)c3ncc(-c4cccc(C(F)(F)F)c4)cc32)n1
5 = O=c1[nH]c2ncc(-c3cccc(F)c3)cc2n1Cc1cccnc1
Ordering: ascending IC50. Put the labels in the requested order and list them out.
3, 5, 4, 2, 1

P = Cc1c(F)ccc(-c2cnc3[nH]c(=O)n(CCN4CCC4)c3c2)c1C
Q = Cn1c(=O)n(Cc2cccnn2)c2cc(-c3csc(C(F)(F)F)c3)cnc21
R = Cc1nnc(Cn2c(=O)n(C)c3ncc(-c4cccc(C(F)(F)F)c4)cc32)o1
S = Cc1c(F)ccc(-c2cnc3c(c2)n(Cc2ccccn2)c(=O)n3C)c1F
List by increasing IC50. Provide your answer as the labels ordered per the instruction.
Q, R, P, S
